test: Selectivity index, ratio of IC50 for rat L6 cells to IC50 for Trypanosoma brucei rhodesiense; assay type: toxicity, cell-based; conditions: L6 cells (versus Trypanosoma brucei rhodesiense), read-out: Ratio IC50
MEASURE: selectivity ratio

COMPOUND	VAL
CN1CCN(CCC(=O)N2CCC3(N4CCCC4)CC(c4ccccc4)C2C(c2ccccc2)C3)CC1 (racemic)	2.36
c1ccc(C2CC3(N4CCCCC4)CCNC2C(c2ccccc2)C3)cc1 (configuration not stated)	13.7
CN1CCN(CC(=O)N2CCC3(N4CCCCC4)CC(c4ccccc4)C2C(c2ccccc2)C3)CC1 (racemic)	1.93
CN1CCN(CC(=O)N2CCC3(N(C)C)CC(c4ccccc4)C2C(c2ccccc2)C3)CC1 (racemic)	4.27
O=C(CN1CCCCC1)OC1CC2(N3CCCCC3)CC(c3ccccc3)C1C(c1ccccc1)C2 (configuration not stated)	69.4
CN1CCN(CCC(=O)N2CCC3(N(C)C)CC(c4ccccc4)C2C(c2ccccc2)C3)CC1 (racemic)	4.52
CN1CCN(CC(=O)OC2CC3(N4CCCC4)CC(c4ccccc4)C2C(c2ccccc2)C3)CC1 (racemic)	176
CN1CCN(CC(=O)NC2CC3(N4CCCC4)CC(c4ccccc4)C2C(c2ccccc2)C3)CC1 (racemic)	44.5
Nc1nc(N)nc(Nc2ccc([As]3SCC(CO)S3)cc2)n1 (configuration not stated) [MELARSOPROL]	2000
CN1CCN(CCC(=O)NC2CC3(N4CCCCC4)CC(c4ccccc4)C2C(c2ccccc2)C3)CC1 (racemic)	71
CN1CCN(CC(=O)NC2CC3(N(C)C)CC(c4ccccc4)C2C(c2ccccc2)C3)CC1 (racemic)	41.4
CN1CCN(CCC(=O)NC2CC3(N4CCCC4)CC(c4ccccc4)C2C(c2ccccc2)C3)CC1 (racemic)	20.9
O=C(CN1CCCC1)OC1CC2(N3CCCCC3)CC(c3ccccc3)C1C(c1ccccc1)C2 (configuration not stated)	51.2
NC1CC2(N3CCCCC3)CC(c3ccccc3)C1C(c1ccccc1)C2 (configuration not stated)	129
CN(C)C12CCNC(C(c3ccccc3)C1)C(c1ccccc1)C2 (configuration not stated)	181
c1ccc(C2CC3(N4CCCC4)CCNC2C(c2ccccc2)C3)cc1 (configuration not stated)	104
CN(C)C12CC(N)C(C(c3ccccc3)C1)C(c1ccccc1)C2 (configuration not stated)	117
CN1CCN(CCC(=O)N2CCC3(N4CCCCC4)CC(c4ccccc4)C2C(c2ccccc2)C3)CC1 (racemic)	3.89
O=C(CN1CCCCC1)OC1CC2(N3CCCC3)CC(c3ccccc3)C1C(c1ccccc1)C2 (configuration not stated)	38.4
CN(C)C12CC(OC(=O)CN3CCCCC3)C(C(c3ccccc3)C1)C(c1ccccc1)C2 (configuration not stated)	14.7
CN1CCN(CCC(=O)NC2CC3(N(C)C)CC(c4ccccc4)C2C(c2ccccc2)C3)CC1 (racemic)	34.7
CCN(CC)CC(=O)OC1CC2(N3CCCC3)CC(c3ccccc3)C1C(c1ccccc1)C2 (configuration not stated)	68.1

====

test: Selectivity index, ratio of IC50 for rat L6 cells to IC50 for Plasmodium falciparum K1; assay type: toxicity, cell-based; settings: L6 cells (versus Plasmodium falciparum K1), read-out: Ratio IC50
Reported selectivity ratio values are given for each entry in this list.
MEASURE: selectivity ratio

MOLECULE	VAL
CN1CCN(CC(=O)NC2CC3(N(C)C)CC(c4ccccc4)C2C(c2ccccc2)C3)CC1 (racemic)	25.7
CN1CCN(CCC(=O)N2CCC3(N4CCCC4)CC(c4ccccc4)C2C(c2ccccc2)C3)CC1 (racemic)	83.8
O=C(CN1CCCCC1)OC1CC2(N3CCCCC3)CC(c3ccccc3)C1C(c1ccccc1)C2 (stereo not given)	336
O=C(CN1CCCC1)OC1CC2(N3CCCCC3)CC(c3ccccc3)C1C(c1ccccc1)C2 (stereo not given)	34.9
CN(C)C12CC(OC(=O)CN3CCCC3)C(C(c3ccccc3)C1)C(c1ccccc1)C2 (stereo not given)	46

Origin of the recorded values: ChEMBL document CHEMBL1136884
